Measured PBM E-score accompanies every entry in the list below.
# tgt: Cad1 (UniProt P24813)
# Sequence: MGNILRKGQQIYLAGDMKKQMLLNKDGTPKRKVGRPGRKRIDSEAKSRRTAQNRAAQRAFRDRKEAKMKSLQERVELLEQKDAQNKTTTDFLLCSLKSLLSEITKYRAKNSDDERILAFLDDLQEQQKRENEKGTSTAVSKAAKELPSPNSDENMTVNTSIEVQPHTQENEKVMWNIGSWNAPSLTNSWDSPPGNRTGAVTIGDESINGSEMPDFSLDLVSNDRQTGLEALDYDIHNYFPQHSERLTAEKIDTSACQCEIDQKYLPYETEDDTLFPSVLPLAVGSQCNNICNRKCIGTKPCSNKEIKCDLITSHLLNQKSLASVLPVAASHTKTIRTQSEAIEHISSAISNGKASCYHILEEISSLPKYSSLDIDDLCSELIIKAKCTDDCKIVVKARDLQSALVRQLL
# measurement description: PBM E-score (8-mer binding enrichment) (E-score (-0.5 to 0.5)); higher = stronger / more preferred TF binding
# measurement context: protein concentration: 100 nM; construct: GST-full length
In all, about 33,000 sequences were measured (“E-score (-0.5 to 0.5)”: median about -0.0014, highest 2% from about 0.25 on). For the sample, the highest values were picked, then their nearest neighbours and some sequences at random.
Could you respond with only the numeric value?

// solved cases for PBM E-score follow
biosequence | PBM E-score
AGTTAGTA | 0.0725
ATTCATCA | 0.132
TGTAGAAA | -0.18

State PBM E-score on Cad1 (UniProt P24813). Entry: AAAATTCA
0.284

Report PBM E-score on Cad1 (UniProt P24813) for this entry: GTAGATCA
0.0116

Give PBM E-score for this entry on Cad1 (UniProt P24813): ATGGGACC
-0.00547

Output reported PBM E-score of the sequence CTTTATTA on Cad1 (UniProt P24813).
0.18

Supply PBM E-score measured with Cad1 (UniProt P24813) for CCAAATTA .
0.107

GET PBM E-score where system = Cad1 (UniProt P24813) and item = AATTTCCG
0.24

Report its PBM E-score with Cad1 (UniProt P24813) as the test system: AAAATATA
0.208

----------
# tgt: Cad1 (UniProt P24813)
# Sequence: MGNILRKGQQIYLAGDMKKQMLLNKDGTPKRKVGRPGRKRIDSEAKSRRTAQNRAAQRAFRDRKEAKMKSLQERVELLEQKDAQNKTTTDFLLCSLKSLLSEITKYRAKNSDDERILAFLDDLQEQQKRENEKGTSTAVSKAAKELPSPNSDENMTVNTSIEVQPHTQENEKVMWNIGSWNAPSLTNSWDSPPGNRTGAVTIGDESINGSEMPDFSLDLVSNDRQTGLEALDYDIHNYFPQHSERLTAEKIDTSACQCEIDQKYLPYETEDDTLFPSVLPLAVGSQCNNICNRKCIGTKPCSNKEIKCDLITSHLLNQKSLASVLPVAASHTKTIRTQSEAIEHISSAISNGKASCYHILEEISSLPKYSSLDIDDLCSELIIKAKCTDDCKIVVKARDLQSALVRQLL
# measurement description: PBM E-score (8-mer binding enrichment) (E-score (-0.5 to 0.5)); higher = stronger / more preferred TF binding
# measurement context: protein concentration: 100 nM; construct: GST-full length
In all, about 33,000 sequences were measured (“E-score (-0.5 to 0.5)”: median about -0.0014, highest 2% from about 0.25 on). What follows is part of a selection rich in the highest values, with near analogues and random picks from the rest.
experimental endpoint: PBM E-score
Response field accepts a number only; no unit should be typed.

Examples with answers:
biosequence | PBM E-score
CAACAAGA | -0.0155
CATCGCTC | -0.187
AAACATAG | -0.0611
ATACATAA | 0.12
ACTAACAG | 0.193

Item GGCCTCAA : provide PBM E-score
-0.0369

Specify PBM E-score for ATACATAT and stop.
0.286

State, in one line, measured PBM E-score of CTCACCGA
-0.12

----------
# tgt: Cad1 (UniProt P24813)
# Sequence: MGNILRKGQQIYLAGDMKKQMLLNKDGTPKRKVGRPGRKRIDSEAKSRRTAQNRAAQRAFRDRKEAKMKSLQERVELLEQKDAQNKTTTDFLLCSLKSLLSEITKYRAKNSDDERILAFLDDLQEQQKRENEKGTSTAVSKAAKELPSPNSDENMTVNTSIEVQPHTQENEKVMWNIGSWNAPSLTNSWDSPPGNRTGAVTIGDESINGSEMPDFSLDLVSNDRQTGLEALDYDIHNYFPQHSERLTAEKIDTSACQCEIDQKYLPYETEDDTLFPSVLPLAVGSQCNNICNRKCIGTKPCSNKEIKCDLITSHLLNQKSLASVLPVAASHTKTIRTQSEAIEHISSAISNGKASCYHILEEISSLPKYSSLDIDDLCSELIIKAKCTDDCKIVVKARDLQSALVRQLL
# measurement description: PBM E-score (8-mer binding enrichment) (E-score (-0.5 to 0.5)); higher = stronger / more preferred TF binding
# measurement context: protein concentration: 100 nM; construct: GST-full length
Over roughly 33,000 sequences, “E-score (-0.5 to 0.5)” has its median near -0.0014; the highest 2% begin near 0.25. The list comes from a sample in which the highest values are over-represented; it also holds close analogues and randomly drawn sequences.
Class criterion met: PBM E-score at least -0.07. Class criterion not met: PBM E-score below -0.07.

Example entries and their recorded answers appear below.
biosequence | category label
CAACCGAC | criterion met
AAACCGCA | criterion not met
GGACGTCA | criterion not met
GCCGGGAC | criterion not met
GTCGGTAA | criterion not met
CAAGCAAA | criterion met
AGCGCGTA | criterion met
AGACGTCA | criterion not met

Please tell me: is the sequence ATTGTCCA at or over -0.07 in terms of PBM E-score?
criterion met

----------
# tgt: Cad1 (UniProt P24813)
# Sequence: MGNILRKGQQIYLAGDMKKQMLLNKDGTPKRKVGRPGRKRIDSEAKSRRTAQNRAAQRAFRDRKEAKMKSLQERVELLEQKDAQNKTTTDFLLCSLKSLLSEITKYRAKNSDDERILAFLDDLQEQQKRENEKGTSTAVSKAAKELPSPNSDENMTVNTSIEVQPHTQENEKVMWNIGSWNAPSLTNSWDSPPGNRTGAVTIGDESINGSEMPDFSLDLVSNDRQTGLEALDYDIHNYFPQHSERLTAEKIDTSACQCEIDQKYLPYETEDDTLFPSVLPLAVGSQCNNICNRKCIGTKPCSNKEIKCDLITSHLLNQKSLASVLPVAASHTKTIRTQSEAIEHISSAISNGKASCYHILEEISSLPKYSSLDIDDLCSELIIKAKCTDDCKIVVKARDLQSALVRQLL
# measurement description: PBM E-score (8-mer binding enrichment) (E-score (-0.5 to 0.5)); higher = stronger / more preferred TF binding
# measurement context: protein concentration: 100 nM; construct: GST-full length
Over roughly 33,000 sequences, “E-score (-0.5 to 0.5)” has its median near -0.0014; the highest 2% begin near 0.25. The sample as a whole holds a higher share of the highest values than the screen did.
experimental endpoint: PBM E-score
Reply with just the number.

// known answers, use as guide
biosequence | numeric result
ACGATTGC | 0.213
ATCGCATA | 0.0254
AGCATATC | 0.025
AAAGATAC | -0.051

Now look at this entry.
For the sequence AACGATAC , give its measured PBM E-score value.
0.0534

----------
# tgt: Cad1 (UniProt P24813)
# Sequence: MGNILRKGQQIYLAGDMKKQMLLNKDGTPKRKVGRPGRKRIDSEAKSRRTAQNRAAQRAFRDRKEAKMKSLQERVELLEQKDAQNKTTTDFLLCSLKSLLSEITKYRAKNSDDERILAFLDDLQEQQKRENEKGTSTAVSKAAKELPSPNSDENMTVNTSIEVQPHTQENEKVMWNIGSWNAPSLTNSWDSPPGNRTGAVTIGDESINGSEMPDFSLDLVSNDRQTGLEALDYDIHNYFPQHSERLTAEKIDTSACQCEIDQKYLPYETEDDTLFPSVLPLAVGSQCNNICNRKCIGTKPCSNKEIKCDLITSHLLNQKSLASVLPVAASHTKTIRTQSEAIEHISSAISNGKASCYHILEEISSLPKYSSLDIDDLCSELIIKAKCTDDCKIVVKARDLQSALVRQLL
# measurement description: PBM E-score (8-mer binding enrichment) (E-score (-0.5 to 0.5)); higher = stronger / more preferred TF binding
# measurement context: protein concentration: 100 nM; construct: GST-full length
Over roughly 33,000 sequences, “E-score (-0.5 to 0.5)” has its median near -0.0014; the highest 2% begin near 0.25. This excerpt belongs to a sample that is enriched for the highest values.
Record YES whenever PBM E-score is at 0.08 or higher; record NO when lower.

Worked examples follow.
biosequence | tgt | category label
CTAATTAC | Cad1 (UniProt P24813) | YES
TGAAAACA | Cad1 (UniProt P24813) | YES
AAAATTCT | Cad1 (UniProt P24813) | NO
ATAATTTG | Cad1 (UniProt P24813) | YES
ATAATTGG | Cad1 (UniProt P24813) | NO

Please indicate if the recorded PBM E-score for AAAATTAG meets or exceeds 0.08.
YES

Exam item: decide whether the reported PBM E-score for ATATCAAT is at least 0.08.
YES

Tell me whether PBM E-score is at least 0.08 here: ATAATTAC
YES

Is PBM E-score at least 0.08? Consider CAAATTTG
YES

Test whether the sequence AGAATTAT records PBM E-score of 0.08 or higher.
YES

Could you tell me if the measured PBM E-score of CAGGTTAC reaches 0.08 or more?
NO

Could you verify whether the entry CAAATTTC shows PBM E-score of no less than 0.08?
YES

Dear colleague, could you confirm whether ATAATTAT has PBM E-score at or above 0.08?
YES

API: above_or_equal(metric=PBM E-score, cutoff=0.08) for item GCTCATGA
NO
